Data origin, for the record: PubChem BioAssay

Molecular target: Potassium voltage-gated channel subfamily KQT member 1 (Homo sapiens)
Assay: KCNQ1 potassium channel inhibitors, confirmation, cell-based, Tl flux, duplicate (AID 588353)
Conditions: KCNQ1 cell line, FluxOR thallium flux fluorescence, at 10 µM, stronger effect = higher value
The other results are listed elsewhere or left out.
Kind request: treat 80% as inclusive, so inhibition at 80% or higher is Criterion met, anything lower is Criterion not met.

Cc1cccc(NC(=S)Nc2ccc(Cl)c(Cl)c2)c1 : Criterion not met
CCN(CC)CC(=O)Nc1sc2c(c1C(=O)c1ccccc1C)CCC2 : Criterion met
Cc1nc(N2CCN(c3ccccn3)CC2)c2c(C)c(C(=O)Nc3ccc(F)cc3)sc2n1 : Criterion met
O=C(Nc1ccc(Cl)c(Cl)c1)N1CC=C(c2ccccc2)CC1 : Criterion met

Let's switch to this molecule now.
Request: Form field: inhibition at least 80%? Entry: O=C(Nc1ccc(Cl)cc1)Nc1ccc(Oc2cccnc2)nc1
Result: Criterion not met
